- System: NCI-H226
- ASSAY_INFO: NCI tumour cell line growth inhibition, 48 h
The source made the active and inactive calls. Rule as the data show it: active = GI50 up to about 1.1 µM and inactive = higher.
Entries and their measured GI50 follow.

Below, 2 compounds whose answers are already recorded.
COC(=O)C1([C@@H]2C[C@@H](O)[C@]3(C)CC/C=C(\C)CCC[C@H](C)[C@H](O)[C@@H]2O3)CC1 = 27.2 µM (inactive)
NC1=Nc2ccccc2Sc2cccc(F)c21 = 66.5 µM (inactive)

// moving on: another record for GI50
Entry C[C@]12CC[C@@H]3c4ccc(O)cc4CC[C@H]3[C@@H]1CC[C@@H]2OP(=O)(O)O , system NCI-H226: what GI50 was measured?
> 100 µM (inactive)
